Assay: Heavy metal removal ability test in contaminated soil (ICP-MS), arsenic
Details: content 2.0% aqueous solution; contaminated soil
measurement kind: Arsenic (As) Adsorption amount
Phrase the answer as number then unit, nothing more needed.

// below: answered compounds
>>> print(df.to_string())
                                   compound                measurement_kind  result
0  O=C(O)c1ccc(N2CCN(c3ccc(C(=O)O)o3)CCN(c3ccc(C(=O)O)o3)CCN(c3ccc(C(=O)O)o3)CC2)o1  Arsenic (As) Adsorption amount  49 ppm
1  O=C(O)c1ccc(N(CCN(CCN(c2ccc(C(=O)O)o2)c2ccc(C(=O)O)o2)c2ccc(C(=O)O)o2)CCN(c2ccc(C(=O)O)o2)c2ccc(C(=O)O)o2)o1  Arsenic (As) Adsorption amount  56 ppm
2  O=C(O)c1ccc(N2CCCN(c3ccc(C(=O)O)cc3)CCN(c3ccc(C(=O)O)cc3)CCCN(c3ccc(C(=O)O)cc3)CC2)cc1  Arsenic (As) Adsorption amount  46 ppm

Hello, I would appreciate it if you could give Arsenic (As) Adsorption amount for each entry below.
1. NCCNCCNCCN [Trientine, Triethylenetetramine, reference compound]
2. O=C(O)c1cncc(N2CCCN(c3cncc(C(=O)O)c3)CCN(c3cncc(C(=O)O)c3)CCCN(c3cncc(C(=O)O)c3)CC2)c1
3. O=C(O)CN(CCN(CCN(CC(=O)O)CC(=O)O)CC(=O)O)CCN(CC(=O)O)CC(=O)O
4. O=C(O)c1cncc(N2CCN(c3cncc(C(=O)O)c3)CCN(c3cncc(C(=O)O)c3)CCN(c3cncc(C(=O)O)c3)CC2)c1
5. O=C(O)c1ccc(N2CCN(c3ccc(C(=O)O)cc3)CCN(c3ccc(C(=O)O)cc3)CCN(c3ccc(C(=O)O)cc3)CC2)cc1

output:
1. 59 ppm
2. 47 ppm
3. 53 ppm
4. 51 ppm
5. 48 ppm

----------
Kindly state Cadmium (Cd) Adsorption rate for each of the entries shown.
Test: Heavy metal removal ability test in contaminated soil (ICP-MS), cadmium
Conditions: content 0.5%; relative to EDTA control
State the value with its unit after it.

>>> df
                                   compound  result
0  O=C(O)CN1CCN(CC(=O)O)CCN(CC(=O)O)CCN(CC(=O)O)CC1    146%

Look at each compound and report its Cadmium (Cd) Adsorption rate.
1. O=C(O)c1ccc(N2CCCN(c3ccc(C(=O)O)cc3)CCN(c3ccc(C(=O)O)cc3)CCCN(c3ccc(C(=O)O)cc3)CC2)cc1
2. O=C(O)c1ccc(N(CCN(CCN(c2ccc(C(=O)O)o2)c2ccc(C(=O)O)o2)c2ccc(C(=O)O)o2)CCN(c2ccc(C(=O)O)o2)c2ccc(C(=O)O)o2)o1

output:
1: 141%; 2: 163%

----------
Tested on: human skin
Experiment: Skin irritation test of active ingredient (patch method, CTFA guidelines)
Format: in vivo
Details: content 0.1 wt %; 24 h patch
Protocol: A filter paper disk was placed in an 8 mm diameter, 10 panels of pin chamber. After 24 hours, the pin chamber was removed, and skin conditions were visually observed. The degree and grade for skin irritation were calculated according to the following Equation 2, and the results are shown in Table 4 below. [Criteria for Skin Irritation] […]
For each of the compounds below, state its Degree of irritation.
Give bare numbers.

Here's what some known entries look like.
>>> df
                           molecular_string  system_under_test  readout_number
0  O=C(O)CN1CCN(CC(=O)O)CCN(CC(=O)O)CCN(CC(=O)O)CC1         human skin               0
1  O=C(O)c1cncc(N2CCN(c3cncc(C(=O)O)c3)CCN(c3cncc(C(=O)O)c3)CCN(c3cncc(C(=O)O)c3)CC2)c1         human skin               0

Query compound follows.
input: Which value of Degree of irritation has been reported for O=C(O)c1ccc(N(CCN(CCN(c2ccc(C(=O)O)cc2)c2ccc(C(=O)O)cc2)c2ccc(C(=O)O)cc2)CCN(c2ccc(C(=O)O)cc2)c2ccc(C(=O)O)cc2)cc1 in the records?
output: 0

----------
Test system: human skin
Experiment: Skin irritation test of active ingredient (patch method, CTFA guidelines)
Type: in vivo
Conditions: content 0.1 wt %; 20 people, 24 h patch; (+) apparent reddening
measurement kind: Test result (number of subject) (+)
Give bare numbers.

In [3]: df
Out[3]:
                           molecular_string                     measurement_kind  readout_number
0  O=C(O)c1cncc(N2CCCN(c3cncc(C(=O)O)c3)CCN(c3cncc(C(=O)O)c3)CCCN(c3cncc(C(=O)O)c3)CC2)c1  Test result (number of subject) (+)               0
1  O=C(O)c1ccc(N2CCN(c3ccc(C(=O)O)o3)CCN(c3ccc(C(=O)O)o3)CCN(c3ccc(C(=O)O)o3)CC2)o1  Test result (number of subject) (+)               0

--- query ---
input: Need Test result (number of subject) (+), item O=C(O)c1ccc(N(CCN(CCN(c2ccc(C(=O)O)cc2)c2ccc(C(=O)O)cc2)c2ccc(C(=O)O)cc2)CCN(c2ccc(C(=O)O)cc2)c2ccc(C(=O)O)cc2)cc1
output: 0

----------
Assay: Heavy metal removal ability test in contaminated soil (ICP-MS), arsenic
Conditions: content 1.0% aqueous solution; contaminated soil
So I've got a bunch of molecules here, and I need their Arsenic (As) Adsorption amount values.
Answers are plain numbers, in ppm.

// below: answered molecules
                                   molecule                measurement_kind  readout_number
0  O=C(O)c1ccc(N2CCN(c3ccc(C(=O)O)cc3)CCN(c3ccc(C(=O)O)cc3)CCN(c3ccc(C(=O)O)cc3)CC2)cc1 [Embodiment 6]  Arsenic (As) Adsorption amount              45
1  O=C(O)c1cncc(N2CCN(c3cncc(C(=O)O)c3)CCN(c3cncc(C(=O)O)c3)CCN(c3cncc(C(=O)O)c3)CC2)c1 [Embodiment 7]  Arsenic (As) Adsorption amount              45
2  O=C(O)c1cncc(N2CCCN(c3cncc(C(=O)O)c3)CCN(c3cncc(C(=O)O)c3)CCCN(c3cncc(C(=O)O)c3)CC2)c1 [Embodiment 11]  Arsenic (As) Adsorption amount              41
3  O=C(O)CN1CCCN(CC(=O)O)CCN(CC(=O)O)CCCN(CC(=O)O)CC1 [Embodiment 9]  Arsenic (As) Adsorption amount              46
4  O=C(O)c1ccc(N2CCN(c3ccc(C(=O)O)o3)CCN(c3ccc(C(=O)O)o3)CCN(c3ccc(C(=O)O)o3)CC2)o1 [Embodiment 8]  Arsenic (As) Adsorption amount              47

Hey, quick one: what's Arsenic (As) Adsorption amount for each of these?
1. NCCNCCNCCN [Trientine, Triethylenetetramine, reference compound]
2. O=C(O)CN1CCN(CC(=O)O)CCN(CC(=O)O)CCN(CC(=O)O)CC1 [Embodiment 5]

output:
[52, 46]

----------
Experiment: Heavy metal removal ability test in contaminated soil (ICP-MS), nickel
Conditions: content 0.5% aqueous solution; contaminated soil
measurement kind: Nickel (Ni) Adsorption amount (ppm)
Answers are plain numbers, in ppm.

molecule	Nickel (Ni) Adsorption amount (ppm)
O=C(O)c1ccc(N(CCN(CCN(c2ccc(C(=O)O)cc2)c2ccc(C(=O)O)cc2)c2ccc(C(=O)O)cc2)CCN(c2ccc(C(=O)O)cc2)c2ccc(C(=O)O)cc2)cc1 [Embodiment 2]	94

Items follow; give Nickel (Ni) Adsorption amount for each.
1. O=C(O)c1cncc(N2CCN(c3cncc(C(=O)O)c3)CCN(c3cncc(C(=O)O)c3)CCN(c3cncc(C(=O)O)c3)CC2)c1 [Embodiment 7]
2. O=C(O)c1ccc(N2CCCN(c3ccc(C(=O)O)cc3)CCN(c3ccc(C(=O)O)cc3)CCCN(c3ccc(C(=O)O)cc3)CC2)cc1 [Embodiment 10]
3. C1CNCCNCCNCCN1 [Cyclen, 1,4,7,10-tetraazacyclododecane]
4. O=C(O)CN1CCN(CC(=O)O)CCN(CC(=O)O)CCN(CC(=O)O)CC1 [Embodiment 5]
5. O=C(O)CN1CCCN(CC(=O)O)CCN(CC(=O)O)CCCN(CC(=O)O)CC1 [Embodiment 9]
6. NCCNCCNCCN [Trientine, Triethylenetetramine, reference compound]
7. O=C(O)c1cncc(N2CCCN(c3cncc(C(=O)O)c3)CCN(c3cncc(C(=O)O)c3)CCCN(c3cncc(C(=O)O)c3)CC2)c1 [Embodiment 11]

output:
92
79
91
83
76
102
79

Give measured Nickel (Ni) Adsorption amount for every item shown.
1. O=C(O)c1ccc(N2CCCN(c3ccc(C(=O)O)o3)CCN(c3ccc(C(=O)O)o3)CCCN(c3ccc(C(=O)O)o3)CC2)o1 [Embodiment 12]
2. O=C(O)CN(CCN(CCN(CC(=O)O)CC(=O)O)CC(=O)O)CCN(CC(=O)O)CC(=O)O [Embodiment 1]
3. O=C(O)c1ccc(N(CCN(CCN(c2ccc(C(=O)O)o2)c2ccc(C(=O)O)o2)c2ccc(C(=O)O)o2)CCN(c2ccc(C(=O)O)o2)c2ccc(C(=O)O)o2)o1 [Embodiment 4]

output:
[77, 91, 91]
